The reader will find reported NF-kB SEAP reporter activity values listed item by item below.
# System: RAW-Dual
# ASSAY METHOD TEXT: NF-kB SEAP reporter activity, fold change vs agonist alone; cytotoxicity flag (confluency mask): cytotoxic (confluency <70% of control); higher = enhanced NF-kB activity
# CONDITION SUMMARY: agonist: Pam2CSK4 (TLR2/6) 0.1 ug/mL
In all, about 2,900 compounds were measured (“NF-kB SEAP reporter activity, fold change vs agonist alone”: median about 0.99, highest 2% from about 2.6 on). The list comes from a sample in which the highest values are over-represented; it also holds close analogues and randomly drawn compounds.

{"MOLECULE": "Cl.OCCNCc1ccc(OCc2ccc(F)cc2)c(OCc2ccc(F)cc2)c1 (library stock concentration (final ~1000-fold dilution): 10 mM)", "TESTED TARGET": "RAW-Dual", "NF-kB SEAP reporter activity": 0.301}
{"MOLECULE": "CCC(=C(c1ccccc1)c1ccc(OCCN(C)C)cc1)c1ccccc1 (library stock concentration (final ~1000-fold dilution): 10 mM)", "TESTED TARGET": "RAW-Dual", "NF-kB SEAP reporter activity": 0.398}
{"MOLECULE": "COc1cc(NS(C)(=O)=O)ccc1Nc1c2ccccc2nc2ccccc12.Cl (library stock concentration (final ~1000-fold dilution): 10 mM)", "TESTED TARGET": "RAW-Dual", "NF-kB SEAP reporter activity": 1.05}
{"MOLECULE": "Cc1cncc(CN2CCC(=C3c4ccc(Cl)cc4CCc4cccnc43)CC2)c1.O=C(O)/C=C/C(=O)O (library stock concentration (final ~1000-fold dilution): 10 mM)", "TESTED TARGET": "RAW-Dual", "NF-kB SEAP reporter activity": 0.456}
{"MOLECULE": "CC1(COc2ccc3c(c2)ncn3-c2ccc3cccc(N4CCC(N)CC4)c3n2)COC1 (library stock concentration (final ~1000-fold dilution): 10 mM)", "TESTED TARGET": "RAW-Dual", "NF-kB SEAP reporter activity": 1.81}

====

# Test system: RAW-Dual
# ASSAY METHOD TEXT: NF-kB SEAP reporter activity, fold change vs agonist alone; cytotoxicity flag (confluency mask): not cytotoxic; higher = enhanced NF-kB activity
# CONDITION SUMMARY: agonist: Pam2CSK4 (TLR2/6) 0.1 ug/mL
Whole data set: some 2,900 compounds, median “NF-kB SEAP reporter activity, fold change vs agonist alone” near 0.99, cut for the highest 2% near 2.6. Many of the other results were omitted from the sample, so the highest values are more common in it than they were.
Please use T whenever NF-kB SEAP reporter activity is not below 1, and F whenever it is.

{"COMPOUND": "NC(=O)c1cccc2nc(-c3ccc(C4CCCN4)cc3F)[nH]c12 (stereo unspecified) (library stock concentration (final ~1000-fold dilution): 10 mM)", "ASSIGNED CLASS": "T"}
{"COMPOUND": "CC1OC(=O)C(C)C1CC(O)C(C)(O)C1CCC2(O)C3=CC(=O)C4CC(O)C(O)CC4(C)C3CCC12C (stereo unspecified) (library stock concentration (final ~1000-fold dilution): 10 mM)", "ASSIGNED CLASS": "T"}
{"COMPOUND": "COc1ccc(-c2cc(=O)c3c(O)c(OC)c(O)c(OC)c3o2)cc1 (library stock concentration (final ~1000-fold dilution): 10 mM)", "ASSIGNED CLASS": "T"}
{"COMPOUND": "O=C(O)C1=C/C(=N\\Nc2ccc(S(=O)(=O)Nc3ccccn3)cc2)C=CC1=O (library stock concentration (final ~1000-fold dilution): 10 mM)", "ASSIGNED CLASS": "F"}
{"COMPOUND": "Cc1cc(N=Nc2ccc3c(c2)CCC(=O)N3)c(N)cc1O (library stock concentration (final ~1000-fold dilution): 10 mM)", "ASSIGNED CLASS": "F"}
{"COMPOUND": "Cc1nc(NC(=O)N2CCCC2C(N)=O)sc1-c1csc(C(C)(C)C)n1 (stereo unspecified) (library stock concentration (final ~1000-fold dilution): 10 mM)", "ASSIGNED CLASS": "T"}
{"COMPOUND": "Cn1cc(-c2cnn3c(N)c(Br)c(C4CCCNC4)nc23)cn1 (stereo unspecified) (library stock concentration (final ~1000-fold dilution): 2 mM)", "ASSIGNED CLASS": "T"}
{"COMPOUND": "CSCC(N)C(=O)O (stereo unspecified) (library stock concentration (final ~1000-fold dilution): 10 mM)", "ASSIGNED CLASS": "T"}
{"COMPOUND": "O=C(O)c1ccc(CSc2nc(-c3ccccc3)cc(N3CCN(c4ccccc4Cl)CC3)n2)cc1 (library stock concentration (final ~1000-fold dilution): 10 mM)", "ASSIGNED CLASS": "F"}
{"COMPOUND": "CCCNC(=O)C1OC1C(=O)NC(C(=O)N1CCCC1C(=O)OC)C(C)CC (stereo unspecified) (library stock concentration (final ~1000-fold dilution): 10 mM)", "ASSIGNED CLASS": "F"}
